Hello, the source for this data is patent US20230312578A1, in case you need it.

# assay name: Human tumor cell line growth assay (SRB)
# Format: cell-based
# condition notes: human, OVCAR-4 cells (ovarian), OVCAR-4, 48 h, read-out: LC50
readout: CC50 at 48 h (µM)
Respond with the bare value in µM.

# compound, CC50 at 48 h (µM)
data = [
    ("COc1ccc2c(c1)c1nc3cc(C)c(C)cc3nc1n2CCN(C)C [JBA-094]", 5.56),
]

Query string: Determine its reported CC50 at 48 h: Cc1cc2nc3c4cc(N)ccc4n(CCN(C)C)c3nc2cc1C [JBD-136]
Result string: 59

###

Catalogue of CC50 at 48 h values
# assay name: Human tumor cell line growth assay (SRB)
# Format: cell-based
# condition notes: human, KM12 cells (colon), KM12, 48 h, read-out: LC50
# value in µM; strip the unit string

Example entries begin here.
# molecule, unit abbreviation, CC50 at 48 h
records = [
    ("Cc1cc2nc3c4ccccc4n(CCN(C)C)c3nc2cc1C [B220, reference compound]", "µM", 38.6),
    ("COc1ccc2c(c1)c1nc3cc(C)c(C)cc3nc1n2CCN(C)C", "µM", 6.36),
]

As a next step, examine the molecule that follows.
Query string: Kindly indicate its recorded CC50 at 48 h. Item: Cc1cc2nc3c4cc(N)ccc4n(CCN(C)C)c3nc2cc1C
Result string: 94.7
